# target.or.system: Voltage-gated inwardly rectifying potassium channel KCNH2 (Homo sapiens)
# Sequence (Q12809 whole entry): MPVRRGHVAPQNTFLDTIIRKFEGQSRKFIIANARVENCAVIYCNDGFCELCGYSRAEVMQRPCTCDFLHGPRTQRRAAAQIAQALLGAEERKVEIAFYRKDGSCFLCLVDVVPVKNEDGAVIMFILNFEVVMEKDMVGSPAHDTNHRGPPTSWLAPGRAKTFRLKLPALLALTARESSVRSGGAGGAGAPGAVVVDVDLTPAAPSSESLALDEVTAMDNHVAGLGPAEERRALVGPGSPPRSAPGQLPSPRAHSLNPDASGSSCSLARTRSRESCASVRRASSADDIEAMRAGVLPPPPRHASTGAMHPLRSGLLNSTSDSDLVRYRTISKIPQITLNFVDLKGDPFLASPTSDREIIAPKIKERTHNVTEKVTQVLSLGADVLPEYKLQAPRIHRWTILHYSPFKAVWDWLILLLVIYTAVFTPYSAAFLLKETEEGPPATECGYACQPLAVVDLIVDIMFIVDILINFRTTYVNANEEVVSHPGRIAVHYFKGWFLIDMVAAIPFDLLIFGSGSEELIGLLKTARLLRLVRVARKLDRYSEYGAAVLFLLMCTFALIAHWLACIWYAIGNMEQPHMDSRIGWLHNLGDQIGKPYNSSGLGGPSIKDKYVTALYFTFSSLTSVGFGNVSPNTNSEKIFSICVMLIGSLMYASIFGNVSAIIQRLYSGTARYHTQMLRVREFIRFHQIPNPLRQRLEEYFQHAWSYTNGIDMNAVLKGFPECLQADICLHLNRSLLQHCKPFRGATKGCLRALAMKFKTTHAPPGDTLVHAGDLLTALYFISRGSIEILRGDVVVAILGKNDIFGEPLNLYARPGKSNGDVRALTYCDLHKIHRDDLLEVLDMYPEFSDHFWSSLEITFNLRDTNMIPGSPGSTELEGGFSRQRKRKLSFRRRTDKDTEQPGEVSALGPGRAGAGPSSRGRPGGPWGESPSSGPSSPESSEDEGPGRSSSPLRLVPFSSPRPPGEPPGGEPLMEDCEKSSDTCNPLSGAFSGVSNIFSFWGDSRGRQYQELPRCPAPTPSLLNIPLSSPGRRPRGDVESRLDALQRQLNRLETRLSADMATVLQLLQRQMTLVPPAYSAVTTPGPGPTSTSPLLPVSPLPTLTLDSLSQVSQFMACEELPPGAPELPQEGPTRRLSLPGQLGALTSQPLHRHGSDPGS
# measurement.protocol: Displacement of [35S]MK499 from human ERG expressed in HEK293 cells overexpressing Ikr channel protein
# Assay type: cell-based
metric.name: pIC50
The quantity pIC50 is defined as the negative base-10 logarithm of the molar concentration.

// query pIC50 value for entry Cc1nc(CN[C@H]2CC[C@@H](F)C2)c(C(C)C)n1-c1cc(F)cc(F)c1
4.47

Returns the measured pIC50 for the input compound. Input: Cc1ccc(-n2c(-c3ncccc3Cl)nc(CN[C@H]3CC[C@@H](F)C3)c2C(C)C)cn1
4.82

Endpoint output: pIC50 of CCc1c(CN[C@H]2CC[C@@H](F)C2)nc(-c2ncccc2Cl)n1-c1ccc(C)nc1 . Value?
4.82

Form field: reported pIC50 of Cc1nc(CNC2CCCC2)n(C(C)C)c1-c1ccc(Cl)cc1
5.49

# get_value(readout='pIC50', item= Cc1ccc(-n2c(-c3ncccc3Cl)nc(CNC3CCCC3)c2C(C)C)cn1 )
5.00

Source listed as ChEMBL document CHEMBL1153467.
